Test: Toxicity liver stage against HepG2, at 10uM
Assay type: cell-based
Set-up: test concentration 10 uM, cell line HepG2-A16-CD81EGFP
Conditions: human, HepG2-A16-CD81EGFP cells; read-out: INHIBITION
Exercise: state measured cytotoxicity at 10 µM for each of the molecules provided.
Answers are plain numbers, in %.

Consider the reported cytotoxicity at 10 µM for these molecules:
Incoming: Please look up its cytotoxicity at 10 µM: CCC(O)C1CCN(C(=O)Nc2nc(-c3ccccc3)ns2)CC1 (stereo unspecified)
Outgoing: -130

Incoming: Could you do the same for `COCCC(=O)N1CCC2(CN(Cc3cccc(Cl)c3)C2)C1` , please?
Outgoing: -79.6

Incoming: Entry to check: CCC(=O)N(CC)C(c1cccnc1)c1ccc2c(c1)CCO2 (stereo unspecified)
Outgoing: 2.94

Incoming: Query CC(C)Oc1ncccc1CNC(=O)NC1CCOc2ccccc21 (stereo unspecified) next
Outgoing: -3.16

Incoming: Another: Cc1cc(C2CCCN2C(=O)NCc2cccnc2)on1 (stereo unspecified)
Outgoing: 0.458

Now, please, on to the next molecule.
Incoming: Entry under review: `COc1ccc(OCc2cc(C(=O)N3CCC(O)CC3)n[nH]2)c(Cl)c1` . Reported cytotoxicity at 10 µM?
Outgoing: -1.69

====

Assay: Toxicity liver stage against HepG2, at 10uM
Format: cell-based
Parameters: test concentration 10 uM, cell line HepG2-A16-CD81EGFP
Conditions: human, HepG2-A16-CD81EGFP cells; read-out: INHIBITION
measurement_name: cytotoxicity at 10 µM (%)
Numbers only, in %.

Incoming: What does the record list as cytotoxicity at 10 µM for `COc1c(CNCc2ccc(C(=O)N3CCCC3)cc2)c(C)nn1C` ?
Outgoing: -3.23

Field: cytotoxicity at 10 µM. Fill in for each record below.
1. CCN(CC)C(=O)NCCc1ccn(-c2ccccc2)n1
2. CCOC(=O)c1cnn(C2CCN(C(=O)CC3CCCC3)CC2)c1N
3. CCCNC(=O)C1(Cc2cc(-c3ccccc3)no2)CCN(C(C)=O)C1 (configuration not stated)
4. CN(C)C(=O)CN1CCc2ncnc(NC3CCC3)c2CC1
5. COc1cc(CNc2cc(N3CCCC3CO)ncn2)ccn1 (configuration not stated)
6. COCC(=O)Nc1nccn1Cc1ccc(Br)cc1

Outgoing:
1. -14
2. 0.969
3. 6.6
4. -94.4
5. -28.5
6. -55.1

====

Assay: Toxicity liver stage against HepG2, at 10uM
Format: cell-based
Set-up: test concentration 10 uM, cell line HepG2-A16-CD81EGFP
Details: human, HepG2-A16-CD81EGFP cells; read-out: INHIBITION
measurement_name: cytotoxicity at 10 µM (%)
One number for each entry, in %.

Provide the reported cytotoxicity at 10 µM of each entry below, same order.
1. CCn1c(Cn2ccnc2)nnc1C1CCN(Cc2ccc(C)o2)CC1
2. CCc1ncc2c(n1)CN(Cc1nnc(Cc3ccccc3)o1)CC2
3. CCS(=O)(=O)N1CCC(c2nnc(Cn3cccn3)n2C2CC2)CC1
4. O=C(NC1CC1)[C@H]1C[C@H]2OCC[C@H]2N(Cc2ccc3ccccc3n2)C1
5. CNCc1nc(-c2ccc3c(c2)OCO3)c[nH]1

Outgoing:
1. -2.28
2. -3.04
3. -14.2
4. -62.6
5. 3.44

Your task in this section: give cytotoxicity at 10 µM for each listed record.
1. Cc1noc(NC(=O)c2ccc(OC(F)(F)F)cc2)n1
2. COc1ccc(CN2CCn3cc(CNC(=O)C4CCC4)nc3C2)cc1
3. CN1CCN(C(=O)C2CCCN(c3cccnn3)C2)CC1 (stereo not given)
4. CN(C)c1cccc(CNC(=O)Nc2cc(C#N)ccc2Cl)n1
5. Cc1n[nH]c(C2CN(Cc3nnc(C4CCC4)o3)CCO2)n1 (stereo not given)
6. CN(CC(=O)N1CCCC1c1ccccn1)Cc1ccccc1 (stereo not given)

Outgoing:
[33.5, 5.42, -10.8, 21.6, -3.72, -0.51]

Value sought for every listed compound: cytotoxicity at 10 µM.
1. COc1cc(C(=O)N2CCCC(n3ccnc3)C2)cc2c1OCCO2 (stereo not given)
2. COc1ccc(CN2CCC(c3nccnc3-n3ccnc3)CC2)cc1
3. NC(=O)NCC(=O)N1CCCC(OCc2cccnc2)C1 (stereo not given)

Outgoing:
[-5.28, -27.4, -1.53]

Please go through the list and note cytotoxicity at 10 µM for each compound.
1. Cc1nc(CNc2nc(-c3ccco3)nc3c2CCNCC3)n[nH]1
2. CCCc1cc(CNC(=O)Cc2cc(C)no2)on1
3. Cc1cc(C)n(CC(C)CNC(=O)CCc2ccco2)n1 (stereo not given)

Outgoing:
-9.08
-1.04
-1.05
